# Tested on: Wolbachia pipientis
# EXPERIMENT: Anti-Wolbachia Cell-Based Screen
# Type: functional
# Parameters: scale not given: in the data most compounds retested in dose-response had high values
# SETTINGS: 5 µM
In all, about 48,000 compounds went through this assay and about 13,000 (27%) showed an effect of 50% or more. Some of the results follow.
MEASURED_QUANTITY: Percent Effect (%)
Value expressed in %; do not type the unit.

Ask: So what Percent Effect did N#CCCN(C(=O)CN1CCCC1C1CCCCC1)c1ccccc1 (centres undefined) get with Wolbachia pipientis?
Reply: -8.996

Ask: So what Percent Effect did O=C(O)C(F)(F)F.O=C(O)C(F)(F)F.c1cc(CN2CCO[C@H]3[C@H](OCCN4CCCC4)CC[C@@H]32)co1 get with Wolbachia pipientis?
Reply: 81.09

Ask: So what Percent Effect did O=C(O)C(F)(F)F.c1cc(CN2CCO[C@H]3[C@H](OCC4CCOCC4)CC[C@@H]32)co1 get with Wolbachia pipientis?
Reply: 111.9

Ask: So what Percent Effect did COc1cc(N2CC[C@@H]3O[C@H](C(=O)NCC4CC4)C[C@@H]32)ncn1 get with Wolbachia pipientis?
Reply: 97.06

Ask: So what Percent Effect did COc1cccc2c1CCCCN2C(=O)c1oc(C)nc1C get with Wolbachia pipientis?
Reply: -10.05

Ask: So what Percent Effect did c1ccc2oc(CCCN3CCOC(Cn4cncn4)C3)nc2c1 (centres undefined) get with Wolbachia pipientis?
Reply: 115.2

Ask: So what Percent Effect did Cc1noc(C2CCN(C(=O)c3c(C)noc3C)CC2)n1 get with Wolbachia pipientis?
Reply: -1.195

Ask: So what Percent Effect did CC(CC(=O)NCCNS(C)(=O)=O)C1CCCCC1 (centres undefined) get with Wolbachia pipientis?
Reply: 132.7

Ask: So what Percent Effect did O=C(O)C(F)(F)F.O=C(O)C(F)(F)F.c1csc(CN2CCO[C@H]3[C@H](OCCN4CCCC4)CC[C@@H]32)n1 get with Wolbachia pipientis?
Reply: 6.605

Ask: So what Percent Effect did NS(=O)(=O)CCNC(=O)CCc1cc(Br)cs1 get with Wolbachia pipientis?
Reply: 1.171

Ask: So what Percent Effect did O=C(CCc1nc(Cl)n[nH]1)NC1CCCN(C2Cc3ccccc3C2)C1 (centres undefined) get with Wolbachia pipientis?
Reply: -44.69

Ask: So what Percent Effect did CCNC(=O)N1CCCCC1CCNS(C)(=O)=O (centres undefined) get with Wolbachia pipientis?
Reply: -13.96

Ask: So what Percent Effect did Cc1nc(C)c(C(=O)N2CCCc3c(F)ccc(F)c32)o1 get with Wolbachia pipientis?
Reply: -4.238

Ask: So what Percent Effect did CNC(=O)C1CCCCN1C(=O)c1sc(-c2ccc(C)o2)nc1C (centres undefined) get with Wolbachia pipientis?
Reply: 8.745
